assay_system: ROR gamma ligand-binding domain (hRORg) (Homo sapiens (Human), UniProt P51449)
Sequence (P51449 269-508): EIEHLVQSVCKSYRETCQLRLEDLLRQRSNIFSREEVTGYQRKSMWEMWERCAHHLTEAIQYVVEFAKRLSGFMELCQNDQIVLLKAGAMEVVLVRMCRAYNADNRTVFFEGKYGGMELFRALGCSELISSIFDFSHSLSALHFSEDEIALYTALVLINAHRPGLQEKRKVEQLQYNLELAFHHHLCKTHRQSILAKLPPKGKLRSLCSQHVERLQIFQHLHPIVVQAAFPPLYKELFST
test_description: GAL4-RORγ transactivation (luciferase reporter, HG5LN HeLa line)
condition_info: 18 hours incubation
pIC50: −log10 of the molar value.
pIC50 overview

- compound: "CCc1ccc(N(CC(C)C)S(=O)(=O)c2ccc(NCC3(CC)COC3)c(S(C)(=N)=O)c2)cc1 (stereo not shown)"
  measurement_label: "pIC50"
  result: "< 6.00"
- compound: "CCc1ccc(N(CC(C)C)S(=O)(=O)c2ccc(OCC3CCN(C(=O)OC(C)(C)C)CC3)c(S(C)(=N)=O)c2)cc1 (stereo not shown)"
  measurement_label: "pIC50"
  result: "< 6.00"
- compound: "CCc1ccc(N(CC(C)C)S(=O)(=O)c2ccc(NCc3nonc3C)c(S(C)(=N)=O)c2)cc1 (stereo not shown)"
  measurement_label: "pIC50"
  result: "< 6.00"

Name the recorded pIC50 of the compound listed here: CCc1ccc(N(CC(C)C)S(=O)(=O)c2ccc(OCCc3ccno3)c(S(C)(=N)=O)c2)cc1 (stereo not shown)
< 6.00

Give me measured pIC50, please, for this compound: CCc1ccc(N(CC(C)C)S(=O)(=O)c2ccc(NCC3CCOCC3)c(S(N)(=O)=O)c2)cc1
6.00 to 7.00

Please supply the value of reported pIC50 for the item CCc1ccc(N(CC(C)C)S(=O)(=O)c2ccc(NCc3c(C)noc3C)c(S(C)(=N)=O)c2)cc1 (stereo not shown)
6.00 to 7.00

Provide one value: measured pIC50 of CCc1ccc(N(CC(C)C)S(=O)(=O)c2ccc3c(c2)N(CC2CCOCC2)C(=O)C[S+]3[O-])cc1 (stereo not shown)
< 6.00
